Below, each entry is listed alongside its reported pKd.
# EXPERIMENTAL SYSTEM: T1, cynomolgus PDGF (cynomolgus)
# T1 construct: Printed only as cynomolgus PDGF
# ASSAY TEXT: SPR, Fab fragment; assay format for PDGF not described
Note on units: pKd is unitless, being -log10 of a concentration expressed in mol/L.

Input: Return value of pKd for input bispecific anti-VEGF/anti-PDGF-B Fab fragment 28.01 (Fab, V domains shown) VH: DLQLVESGGGLVKPGGSLRLSCAADGWWFGYTDMSWVRQAPGKGLEWVGSISYKGGSTYYNTKFIGRFTISRDDDTNTLYLQMNSLRAEDTAVYYCARDDGYFDTWGQGTLVTVSS VL: AIHMYQEPSSLSASVGDRVTITCHGSYWLSNYLAWYQQKPGKAPKLLIYDGKEREHGVPSRFSGSGSHEDYTLTISSLQPEDFATYYCQQYRYHPYTFGHGTKVEIKR , no commentary.
Output: 9.22

Input: Tell me its pKd given bispecific anti-VEGF/anti-PDGF-B Fab fragment P1AA9124 (Fab, V domains shown) VH: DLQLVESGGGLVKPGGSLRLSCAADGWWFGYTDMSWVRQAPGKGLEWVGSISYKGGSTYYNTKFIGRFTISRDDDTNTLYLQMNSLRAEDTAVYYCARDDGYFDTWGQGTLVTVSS VL: AIQMTQSPSSLSASVGDRVTITCHGSYWLSNYLAWYQQKPGKAPKLLIYDGKEREHGVPSRFSGSGSHEDYTLTISSLQPEDFATYYCQQYRYHPYTFGQGTKLEIKR as the entry.
Output: 9.22

Input: Kindly indicate its recorded pKd. Item: bispecific anti-VEGF/anti-PDGF-B Fab fragment RO7113083 (Fab, V domains shown, also called R07113083) VH: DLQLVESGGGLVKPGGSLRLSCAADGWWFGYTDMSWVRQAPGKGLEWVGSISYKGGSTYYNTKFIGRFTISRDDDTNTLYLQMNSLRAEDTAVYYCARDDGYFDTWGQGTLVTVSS VL: AIYMHQEPSSLSASVGDRVTITCHGSYWLSNYLAWYQQKPGKAPKLLIYDGKEREHGVPSRFSGSGSHEDYTLTISSLQPEDFATYYCQQYRYHPYTFGHGTKVEIKR
Output: 9.15

Input: Output pKd of bispecific anti-VEGF/anti-PDGF-B Fab fragment 28.07 (Fab, V domains shown) VH: DLQLVESGGGLVKPGGSLRLSCAADGWWFGYTDMSWVRQAPGKGLEWVGSISYKGGHKYLNTKFIGRFTISRDDDTNTLYLQMNSLRAEDTAVYYCARDDGYFDTWGQGTLVTVSS VL: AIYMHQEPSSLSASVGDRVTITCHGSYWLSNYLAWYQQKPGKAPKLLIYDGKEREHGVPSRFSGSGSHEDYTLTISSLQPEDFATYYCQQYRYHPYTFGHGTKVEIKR
Output: 9.22

Value source: patent US20230105324A1
